Molecular target: recombinant human truncated SHIP1 (tSHIP1) (Homo sapiens, UniProt Q92835)
Construct: tSHIP1 (SHIP1, residues 397-864) was amplified from pET24TEV-tSHIP1; His tag; made in house; host or cells: E. coli BL21
Test: Malachite Green Phosphatase Release Assay (SHIP1 phosphatase activity)
Format: biochemical
Settings: 500 μM analog; 100 μM PI(3,4,5)P3-diC8 substrate; normalized to vehicle control (DMSO) = 100%; >100% activation, <100% inhibition
property-measured: Phosphatase activity in the Malachite Green Assay, analog concentration 500 μM (%)

> print(dat)
                         chemical.structure                                    system  unit.descriptor  measurement
1  Cc1sc(S(=O)(=O)N2CCSCC2)cc1NC(=O)[C@@H]1CCCN1S(=O)(=O)c1ccc(F)cc1  recombinant human truncated SHIP1 (tSHIP1) (Homo sapiens, UniProt Q92835)                %          130

[I] Cc1sc(S(=O)(=O)N2CCSCC2)cc1NC(=O)CN1C(=O)c2ccccc2S1(=O)=O
[II] Cc1sc(S(=O)(=O)N2CCSCC2)cc1NC(=O)CNC(=O)OCc1ccccc1
Select one: I or II . Criterion: greater recorded Phosphatase activity in the Malachite Green Assay, analog concentration 500 μM. # reply format: chosen label
I
(I: 161%, II: 105%)

[I] Cc1sc(S(=O)(=O)N2CCSCC2)cc1NC(=O)[C@@H](NS(=O)(=O)c1ccc(F)cc1)c1ccccc1
[II] Cc1sc(S(=O)(=O)N2CCCC2)cc1NC(=O)CNS(=O)(=O)c1ccc(F)cc1
Look at I and II . Which one has the lower recorded Phosphatase activity in the Malachite Green Assay, analog concentration 500 μM number? Selection: enter the item's label.
II

----------
Biological target: recombinant human truncated SHIP1 (tSHIP1) (Homo sapiens)
Construct: tSHIP1 (SHIP1, residues 397-864) was amplified from pET24TEV-tSHIP1; His tag; made in house; host or cells: E. coli BL21
Sequence (Q92835 397-864): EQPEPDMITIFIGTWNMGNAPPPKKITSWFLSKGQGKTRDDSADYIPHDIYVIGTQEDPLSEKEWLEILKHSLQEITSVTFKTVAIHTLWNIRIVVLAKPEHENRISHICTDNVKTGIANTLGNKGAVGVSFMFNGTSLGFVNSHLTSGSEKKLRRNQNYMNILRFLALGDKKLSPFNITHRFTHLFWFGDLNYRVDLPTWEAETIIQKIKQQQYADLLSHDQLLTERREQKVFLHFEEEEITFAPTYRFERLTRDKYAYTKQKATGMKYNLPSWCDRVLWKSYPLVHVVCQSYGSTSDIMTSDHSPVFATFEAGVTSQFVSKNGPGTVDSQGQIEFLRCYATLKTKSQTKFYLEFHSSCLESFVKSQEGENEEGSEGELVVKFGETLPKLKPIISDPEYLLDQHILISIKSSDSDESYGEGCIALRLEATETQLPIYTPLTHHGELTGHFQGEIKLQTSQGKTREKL
Assay: Malachite Green Phosphatase Release Assay (SHIP1 phosphatase activity)
Assay type: biochemical
Settings: 125 μM analog; 100 μM PI(3,4,5)P3-diC8 substrate; normalized to vehicle control (DMSO) = 100%
property-measured: Phosphatase activity in the Malachite Green Assay, analog concentration 125 μM (%)

> print(dat)
                         chemical.structure  unit.descriptor  measurement
1  Cc1sc(S(=O)(=O)N2CCSCC2)cc1NC(=O)CN1C(=O)c2ccccc2S1(=O)=O                %          109
2  Cc1sc(S(=O)(=O)N2CCSCC2)cc1NC(=O)CNC(=O)OCc1ccccc1                %           93
3  O=C(CNS(=O)(=O)c1ccc(F)cc1)Nc1ccc(S(=O)(=O)N2CCSCC2)cc1                %          112
4  Cc1sc(S(=O)(=O)N(C)C)cc1NC(=O)CNS(=O)(=O)c1ccc(F)cc1                %          100
5  Cc1sc(S(=O)(=O)N2CCSCC2)cc1NC(=O)CNS(=O)(=O)c1ccccc1C(F)(F)F                %          106
6  Cc1sc(S(=O)(=O)N2CCSCC2)cc1NC(=O)CNC(=O)c1ccccc1                %           97

[1] Cc1sc(S(=O)(=O)N2CCSCC2)cc1N
[2] Cc1sc(S(=O)(=O)N2CCSCC2)cc1NC(=O)[C@H](Cc1ccccc1)NS(=O)(=O)c1ccc(F)cc1
Lab log: flag the item ( 1 or 2 ) with the smaller Phosphatase activity in the Malachite Green Assay, analog concentration 125 μM figure. Select an item and report its label.
2
(2: 71%, 1: 109%)

----------
Biological target: recombinant human truncated SHIP1 (tSHIP1) (Homo sapiens, UniProt Q92835)
Construct: tSHIP1 (SHIP1, residues 397-864) was amplified from pET24TEV-tSHIP1; His tag; made in house; host or cells: E. coli BL21
Experiment: Malachite Green Phosphatase Release Assay (SHIP1 phosphatase activity)
Format: biochemical
Conditions: 250 μM analog; 100 μM PI(3,4,5)P3-diC8 substrate; normalized to vehicle control (DMSO) = 100%
property-measured: Phosphatase activity in the Malachite Green Assay, analog concentration 250 μM (%)

> print(dat)
                         chemical.structure                                    system  unit.descriptor  measurement
1  Cc1sc(S(=O)(=O)N2CCSCC2)cc1NC(=O)[C@H](C)NS(=O)(=O)c1ccc(F)cc1  recombinant human truncated SHIP1 (tSHIP1) (Homo sapiens, UniProt Q92835)                %          118
2  Cc1sc(S(=O)(=O)N2CCSCC2)cc1NC(=O)[C@@H](NS(=O)(=O)c1ccc(F)cc1)c1ccccc1  recombinant human truncated SHIP1 (tSHIP1) (Homo sapiens, UniProt Q92835)                %          107
3  Cc1sc(S(=O)(=O)N2CCOCC2)cc1NC(=O)CNS(=O)(=O)c1ccc(F)cc1  recombinant human truncated SHIP1 (tSHIP1) (Homo sapiens, UniProt Q92835)                %           93
4  Cc1sc(S(=O)(=O)N2CCSCC2)cc1NC(=O)CNS(=O)(=O)c1ccc([N+](=O)[O-])cc1  recombinant human truncated SHIP1 (tSHIP1) (Homo sapiens, UniProt Q92835)                %          115

----------
Biological target: recombinant human truncated SHIP1 (tSHIP1) (Homo sapiens)
Construct: tSHIP1 (SHIP1, residues 397-864) was amplified from pET24TEV-tSHIP1; His tag; made in house; host or cells: E. coli BL21
Sequence (Q92835 397-864): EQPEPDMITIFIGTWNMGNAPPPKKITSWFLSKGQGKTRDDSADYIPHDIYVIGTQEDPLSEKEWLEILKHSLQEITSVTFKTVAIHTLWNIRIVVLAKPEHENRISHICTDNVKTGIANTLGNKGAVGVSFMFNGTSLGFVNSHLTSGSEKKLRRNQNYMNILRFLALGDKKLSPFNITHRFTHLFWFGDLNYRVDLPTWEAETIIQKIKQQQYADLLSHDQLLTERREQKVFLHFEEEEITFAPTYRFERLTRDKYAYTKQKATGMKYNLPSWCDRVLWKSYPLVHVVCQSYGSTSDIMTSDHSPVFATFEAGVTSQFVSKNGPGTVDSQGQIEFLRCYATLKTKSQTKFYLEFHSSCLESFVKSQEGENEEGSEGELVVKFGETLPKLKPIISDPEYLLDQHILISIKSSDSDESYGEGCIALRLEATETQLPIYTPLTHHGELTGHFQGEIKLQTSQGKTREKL
Assay: Malachite Green Phosphatase Release Assay (SHIP1 phosphatase activity)
Assay type: biochemical
Conditions: 500 μM analog; 100 μM PI(3,4,5)P3-diC8 substrate; normalized to vehicle control (DMSO) = 100%; >100% activation, <100% inhibition
property-measured: Phosphatase activity in the Malachite Green Assay, analog concentration 500 μM (%)

Below: 5 molecules and their reported Phosphatase activity in the Malachite Green Assay, analog concentration 500 μM.
> print(dat)
                         chemical.structure  measurement
1  Cc1sc(S(=O)(=O)N2CCSCC2)cc1NC(=O)[C@@H](C)NS(=O)(=O)c1ccc(F)cc1          116
2  O=C(CNS(=O)(=O)c1ccc(F)cc1)Nc1cc(S(=O)(=O)N2CCSCC2)sc1Cl          125
3  Cc1sc(S(=O)(=O)N2CC[S+]([O-])CC2)cc1NC(=O)CNS(=O)(=O)c1ccc(F)cc1           80
4  Cc1sc(S(=O)(=O)N2CCSCC2)cc1NC(=O)CNS(=O)(=O)c1ccccc1[N+](=O)[O-]          163
5  Cc1sc(S(=O)(=O)N2CCSCC2)cc1NC(=O)[C@@H](Cc1ccccc1)NS(=O)(=O)c1ccc(F)cc1          106

[1] Cc1sc(S(=O)(=O)N2CCSCC2)cc1NC(=O)CNC(=O)c1ccccc1
[2] Cc1sc(S(=O)(=O)N2CCSCC2)cc1NC(=O)CNS(=O)(=O)c1ccc(I)cc1
Among 1 and 2 , which shows a numerically higher Phosphatase activity in the Malachite Green Assay, analog concentration 500 μM result? Give the label under which the chosen entry appears.
2
(2: 119%, 1: 83%)
